Reported pKi values are given for each entry in this list.
study_target: JAK2 (Homo sapiens (Human))
Sequence (O60674 whole entry): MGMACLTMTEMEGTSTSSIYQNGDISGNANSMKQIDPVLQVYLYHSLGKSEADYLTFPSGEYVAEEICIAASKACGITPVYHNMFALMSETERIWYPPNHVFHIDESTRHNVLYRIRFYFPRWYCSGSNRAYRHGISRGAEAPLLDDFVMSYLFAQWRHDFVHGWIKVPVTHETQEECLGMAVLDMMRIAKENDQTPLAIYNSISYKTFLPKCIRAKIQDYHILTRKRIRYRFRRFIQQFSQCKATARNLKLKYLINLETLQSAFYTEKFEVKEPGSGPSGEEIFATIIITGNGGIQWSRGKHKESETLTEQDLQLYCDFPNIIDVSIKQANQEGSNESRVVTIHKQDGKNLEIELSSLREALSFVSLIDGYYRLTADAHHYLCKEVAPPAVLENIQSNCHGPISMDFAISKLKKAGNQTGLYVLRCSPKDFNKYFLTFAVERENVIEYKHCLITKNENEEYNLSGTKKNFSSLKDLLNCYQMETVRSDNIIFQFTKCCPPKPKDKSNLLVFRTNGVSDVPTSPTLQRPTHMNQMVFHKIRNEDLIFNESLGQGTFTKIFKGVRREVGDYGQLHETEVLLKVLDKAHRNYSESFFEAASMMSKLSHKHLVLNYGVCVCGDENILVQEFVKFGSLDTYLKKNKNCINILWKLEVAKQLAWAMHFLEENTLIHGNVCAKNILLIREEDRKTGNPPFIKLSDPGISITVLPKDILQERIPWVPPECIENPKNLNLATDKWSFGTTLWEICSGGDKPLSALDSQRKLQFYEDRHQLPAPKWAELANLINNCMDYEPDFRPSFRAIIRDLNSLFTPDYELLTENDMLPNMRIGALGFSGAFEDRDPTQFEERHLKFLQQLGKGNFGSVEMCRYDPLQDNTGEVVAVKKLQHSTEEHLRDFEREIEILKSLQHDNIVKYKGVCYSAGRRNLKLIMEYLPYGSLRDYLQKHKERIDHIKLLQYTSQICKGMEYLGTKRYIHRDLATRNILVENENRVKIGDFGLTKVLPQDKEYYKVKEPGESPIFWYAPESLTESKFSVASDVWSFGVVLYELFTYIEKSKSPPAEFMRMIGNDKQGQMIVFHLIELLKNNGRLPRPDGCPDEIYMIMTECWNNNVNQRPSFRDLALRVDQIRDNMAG
experimental_protocol: JAK2 activity inhibition assay (radioactive kinase assay / Caliper assay)
Type: biochemical
test_settings: read-out: JAK2 Ki
Method: The caliper machine employs an off chip mobility shift assay to detect phosphorylated peptide substrates from kinase assays, using microfluidics technology. […] Compounds are serially diluted in DMSO then further diluted in assay buffer (25 mM HEPES, pH 7.5, 0.01% Brij-35, 0.01% Triton, 0.5 mM EGTA). […] Reaction was incubated at 28° C. for 25 min and then added 25 ul stop buffer (100 mM HEPES, 0.015% Brij-35, 50 mM EDTA), followed by reading with Caliper.
pKi: −log10 of the molar value.

# annotated cases, reported pKi shown
{"molecule": "COCCOc1ccc(Nc2nc(-c3c(F)cccc3F)nc3c2C(=O)NC3)cc1 [Compound I-185]", "pKi": "6.00 to 7.00"}
{"molecule": "CN(C(=O)Cc1ccc(Nc2nc(-c3c(F)cccc3F)nc3c2C(=O)NC3)cc1)C1CCNCC1 [Compound I-22]", "pKi": "7.00 to 8.00"}
{"molecule": "O=C1NCc2nc(-c3c(F)cccc3F)cc(Nc3ccc(C(=O)N4CCCCC4)cc3)c21 [Compound I-257]", "pKi": "7.00 to 8.00"}

We next turn to a different molecule, shown below.
Item: CCNC(=O)c1ccc(Nc2cc(-c3c(F)cccc3Cl)nc3c2C(=O)NC3)nc1 [Compound I-146] | pKi: 7.00 to 8.00
